Source listed as PubChem BioAssay (NCI).

Please respond with reported TGI for every item in the list.
tested on: UACC-257 melanoma; assay: NCI tumour cell line growth inhibition, 48 h

Would you mind telling me what TGI value was observed for `Cc1ccc(C(=O)O)c(/C=C2\Cc3cc(C)cc(C)c3C2=O)c1` ?
> 100 µM

And for O=C(O)C1CC(C2CCCCN2)CN2CCCCC12 (stereo not given) ?
> 100 µM

Okay, and CCC(=O)N(c1ccccc1)C(C)CN1CCC(O)(c2cccc(C(F)(F)F)c2)CC1 (stereo not given) ?
34.3 µM

And `CN1C(=S)CSc2ccccc21` ?
> 100 µM

Item: `CCN(CC)C(=S)/N=C(\SC(=S)N(CC)CC)c1ccccc1`
> 100 µM
